- SUBJECT OF TEST: NADPH oxidase 5 (Homo sapiens) (UniProt Q96PH1)
- Sequence (Q96PH1 whole entry, looked up): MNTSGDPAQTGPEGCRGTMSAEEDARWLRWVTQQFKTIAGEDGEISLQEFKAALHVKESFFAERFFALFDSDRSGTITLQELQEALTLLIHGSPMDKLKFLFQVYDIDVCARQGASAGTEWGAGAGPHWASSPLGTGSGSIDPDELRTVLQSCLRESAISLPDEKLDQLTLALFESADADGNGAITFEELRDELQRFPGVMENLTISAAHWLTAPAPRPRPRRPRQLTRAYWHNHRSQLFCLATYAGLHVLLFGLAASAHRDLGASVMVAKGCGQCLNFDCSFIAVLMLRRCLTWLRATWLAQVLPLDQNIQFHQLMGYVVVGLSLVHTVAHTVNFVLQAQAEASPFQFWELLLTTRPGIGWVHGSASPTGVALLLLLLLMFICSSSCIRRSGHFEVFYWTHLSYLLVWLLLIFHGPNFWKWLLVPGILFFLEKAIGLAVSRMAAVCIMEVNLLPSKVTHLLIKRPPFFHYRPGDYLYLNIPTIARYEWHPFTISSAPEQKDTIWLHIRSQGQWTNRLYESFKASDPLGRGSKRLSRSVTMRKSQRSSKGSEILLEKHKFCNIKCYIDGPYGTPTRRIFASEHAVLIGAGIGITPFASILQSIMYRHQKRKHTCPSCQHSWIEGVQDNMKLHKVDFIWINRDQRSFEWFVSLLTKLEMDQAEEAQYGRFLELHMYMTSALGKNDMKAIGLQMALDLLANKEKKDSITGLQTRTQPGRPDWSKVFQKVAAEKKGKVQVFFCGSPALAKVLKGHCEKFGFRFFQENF
- ASSAY REMARKS: NOX5-dependent H2O2 signal modulators, primary screen, NOX inhibitor project, cell-based, HEK293-NOX5, Amplex Red fluorescence (AID 1161)
- CONDITION PARAMETERS: HEK293-NOX5, ionomycin, 45 min, higher = more signal
Label YES for high-side z-score (at or above 0.2) and NO for low-side z-score (below it).

COMPOUND: COC(=O)C(C(=O)OC)C1CCCC(=O)C1 (stereo not given)
SUBJECT OF TEST: NADPH oxidase 5 (Homo sapiens) (UniProt Q96PH1)
CLASSIFICATION: YES

## Input Item CCN1C(=O)[C@H]2[C@H]3[C@H](O)[C@H](O)CC(=NOCC[C@@H]4C=C[C@H](OC(C)=O)[C@@H](COC(C)=O)O4)[C@@H]3CC[C@H]2C1=O with z-score of 0.2 or above?
## Output YES

## Input Could you do the same for CCOC(=O)[C@H](CC(C)C)NC(=O)CCC1CC(OC(=O)NCc2ccc3c(c2)OCO3)CC2(CCCC(COC(=O)NCCc3ccccc3OC)O2)O1 (stereo not given in full) , please?
## Output YES

## Input Could you do the same for CC(C)=NOC(C)CN1CCCCc2nc(C)c(C)cc21 (stereo not given) , please?
## Output NO

## Input Could you do the same for CC(=O)OC[C@H]1O[C@@H](ON=C(C)CCN2CCCCc3nc(C)c(C)cc32)[C@H](OC(C)=O)[C@@H](OC(C)=O)[C@@H]1OC(C)=O , please?
## Output NO

Hey, just so you know, these numbers are from PubChem BioAssay.
